Tested on: Acinetobacter baumannii clinical isolate 9978
experimental_protocol: Rescue concentration, modified checkerboard MIC adjuvant assay
Assay type: cell-based
recorded_conditions: A. baumannii clinical isolate 9978; Pol B at susceptible breakpoint 2 μg mL^−1
quantity_name: Rescue concentration, Pol B (2)

Asked: Given the compound `Oc1ccc(C(c2c[nH]c3ncccc23)c2c[nH]c3ncccc23)cc1` , what is its reported Rescue concentration, Pol B (2)?
Given back: >128 µg/mL

Asked: Let us now turn to `Brc1ccc(C(c2c[nH]c3ncccc23)c2c[nH]c3ncccc23)cc1`
Given back: >128 µg/mL

Asked: Let us now turn to `Brc1ccc(C(c2c[nH]c3cnccc23)c2c[nH]c3cnccc23)cc1`
Given back: 16 µg/mL

Asked: Let us now turn to `Oc1ccc(C(c2c[nH]c3cnccc23)c2c[nH]c3cnccc23)cc1`
Given back: 64 µg/mL

====

Test system: Pseudomonas aeruginosa MDR 5805
experimental_protocol: Rescue concentration, modified checkerboard MIC adjuvant assay
Assay type: cell-based
recorded_conditions: P. aeruginosa MDR 5805; Gen at susceptible breakpoint 4 μg mL^−1
quantity_name: Rescue concentration, Gen (4) (µg/mL)
Answer format: numeric, µg/mL implied, no suffix.

Asked: Given the compound `Brc1ccc(C(c2c[nH]c3cnccc23)c2c[nH]c3cnccc23)cc1` , what is its reported Rescue concentration, Gen (4)?
Given back: 16

Asked: Let us now turn to `Oc1ccc(C(c2c[nH]c3cnccc23)c2c[nH]c3cnccc23)cc1`
Given back: 4

====

Tested on: Klebsiella pneumoniae ATCC 49472
experimental_protocol: Rescue concentration, modified checkerboard MIC adjuvant assay
Assay type: cell-based
recorded_conditions: K. pneumoniae ATCC 49472; Mero at susceptible breakpoint 1 μg mL^−1
Assignment: determine reported Rescue concentration, Mero (1) for the given molecules.
Answer format: numeric, µg/mL implied, no suffix.

Asked: Given the molecule `Oc1ccc(C(c2c[nH]c3cnccc23)c2c[nH]c3cnccc23)cc1` , what is its reported Rescue concentration, Mero (1)?
Given back: 32

Asked: Let us now turn to `Brc1ccc(C(c2c[nH]c3cnccc23)c2c[nH]c3cnccc23)cc1`
Given back: 4

====

System: Pseudomonas aeruginosa MDR 5805
experimental_protocol: Rescue concentration, modified checkerboard MIC adjuvant assay
Assay type: cell-based
recorded_conditions: P. aeruginosa MDR 5805; Col at susceptible breakpoint 2 μg mL^−1
Assignment: determine reported Rescue concentration, Col (2) for the given molecules.

Asked: Given the molecule `Oc1ccc(C(c2c[nH]c3cnccc23)c2c[nH]c3cnccc23)cc1` , what is its reported Rescue concentration, Col (2)?
Given back: 4 µg/mL

Asked: Let us now turn to `Brc1ccc(C(c2c[nH]c3cnccc23)c2c[nH]c3cnccc23)cc1`
Given back: >128 µg/mL

Asked: Let us now turn to `Brc1ccc(C(c2c[nH]c3ncccc23)c2c[nH]c3ncccc23)cc1`
Given back: >128 µg/mL

Asked: Let us now turn to `Oc1ccc(C(c2c[nH]c3ncccc23)c2c[nH]c3ncccc23)cc1`
Given back: >128 µg/mL

====

Tested on: Klebsiella pneumoniae ATCC BAA-2814
experimental_protocol: Rescue concentration, modified checkerboard MIC adjuvant assay
Assay type: cell-based
recorded_conditions: K. pneumoniae ATCC BAA-2814; Gen at susceptible breakpoint 4 μg mL^−1
quantity_name: Rescue concentration, Gen (4) (µg/mL)
Answer format: numeric, µg/mL implied, no suffix.

Asked: Recorded Rescue concentration, Gen (4) for `Oc1ccc(C(c2c[nH]c3cnccc23)c2c[nH]c3cnccc23)cc1` with Klebsiella pneumoniae ATCC BAA-2814, please?
Given back: 4

Asked: Let us now turn to `Brc1ccc(C(c2c[nH]c3cnccc23)c2c[nH]c3cnccc23)cc1`
Given back: 16

====

Assignment: determine reported Rescue concentration, Imi (1) for the given compounds.
System: Klebsiella pneumoniae ATCC BAA-2814
experimental_protocol: Rescue concentration, modified checkerboard MIC adjuvant assay
Assay type: cell-based
recorded_conditions: K. pneumoniae ATCC BAA-2814; Imi at susceptible breakpoint 1 μg mL^−1
Answer format: numeric, µg/mL implied, no suffix.

Asked: Given the compound `Oc1ccc(C(c2c[nH]c3cnccc23)c2c[nH]c3cnccc23)cc1` , what is its reported Rescue concentration, Imi (1)?
Given back: 4

Asked: Let us now turn to `Brc1ccc(C(c2c[nH]c3cnccc23)c2c[nH]c3cnccc23)cc1`
Given back: 2

====

System: Streptococcus pneumoniae ATCC 49619
experimental_protocol: Rescue concentration, modified checkerboard MIC adjuvant assay
Assay type: cell-based
recorded_conditions: S. pneumoniae ATCC 49619; Ery at susceptible breakpoint 0.25 μg mL^−1
quantity_name: Rescue concentration, Ery (0.25)

Asked: Given the molecule Brc1ccc(C(c2c[nH]c3ncccc23)c2c[nH]c3ncccc23)cc1 [SP-7azaBIM 126] , what is its reported Rescue concentration, Ery (0.25)?
Given back: >128 µg/mL

Asked: Let us now turn to Oc1ccc(C(c2c[nH]c3cnccc23)c2c[nH]c3cnccc23)cc1 [SP-6azaBIM 136]
Given back: >128 µg/mL

Asked: Let us now turn to Oc1ccc(C(c2c[nH]c3ncccc23)c2c[nH]c3ncccc23)cc1 [SP-7azaBIM 135]
Given back: >128 µg/mL

Asked: Let us now turn to Brc1ccc(C(c2c[nH]c3cnccc23)c2c[nH]c3cnccc23)cc1 [SP-6azaBIM 125]
Given back: >128 µg/mL

====

Assignment: determine reported Rescue concentration, P. aeruginosa Imipenem (1 μg/mL) for the given compounds.
Test system: P. aeruginosa
experimental_protocol: Rescue concentration of substituted phenyl azaindole derivatives
Type: cell-based
recorded_conditions: Imipenem fixed at 1 μg/mL

Asked: Given the compound Oc1ccc(C(c2c[nH]c3cnc(Cl)cc23)c2c[nH]c3cnc(Cl)cc23)cc1 [4OH-Bis 5Cl 6aza] , what is its reported Rescue concentration, P. aeruginosa Imipenem (1 μg/mL)?
Given back: <256 µg/mL

Asked: Let us now turn to O=[N+]([O-])c1cccc(C(O)c2c[nH]c3ncc(Cl)cc23)c1 (centres unmarked) [3NO2-5Cl-7aza-OH]
Given back: <256 µg/mL

Asked: Let us now turn to O=[N+]([O-])c1ccc(C(O)c2c[nH]c3cnc(Br)cc23)cc1 (centres unmarked) [4NO2-5Br-6aza-OH]
Given back: <256 µg/mL

Asked: Let us now turn to O=[N+]([O-])c1cccc(C(O)c2c[nH]c3ncccc23)c1 (centres unmarked) [Compound 3NO2-7aza-OH]
Given back: <256 µg/mL

Asked: Let us now turn to O=[N+]([O-])c1ccc(C(O)c2c[nH]c3ncc(Cl)cc23)cc1 (centres unmarked) [4NO2-5Cl-7aza-OH]
Given back: <256 µg/mL

Asked: Let us now turn to O=[N+]([O-])c1cccc(C(O)c2c[nH]c3cnccc23)c1 (centres unmarked) [Compound 3NO2-6aza-OH]
Given back: <256 µg/mL

Asked: Let us now turn to O=[N+]([O-])c1ccc(C(O)c2c[nH]c3c(Cl)nc(Br)cc23)cc1 (centres unmarked) [4NO2-5Br-7Cl-6aza-OH]
Given back: <256 µg/mL

Asked: Let us now turn to Oc1ccc(C(O)c2c[nH]c3ncc(F)cc23)cc1 (centres unmarked) [4OH-5Fl-7aza-OH]
Given back: 256 µg/mL

Asked: Let us now turn to O=[N+]([O-])c1ccc(C(O)c2c[nH]c3cnccc23)cc1 (centres unmarked) [Compound 4NO2-6aza-OH]
Given back: <256 µg/mL

Asked: Let us now turn to O=Cc1cccc(C(O)c2c[nH]c3c(Cl)nccc23)c1 (centres unmarked) [iso-7Cl-6aza-OH]
Given back: <256 µg/mL

Asked: Let us now turn to Oc1ccc(C(O)c2c[nH]c3ncccc23)cc1 (centres unmarked) [Compound 4OH-7aza-OH]
Given back: <256 µg/mL

Asked: Let us now turn to O=[N+]([O-])c1ccc(C(O)c2c[nH]c3c(Cl)nccc23)cc1 (centres unmarked) [4NO2-7Cl-6aza-OH]
Given back: <256 µg/mL

Asked: Let us now turn to OC(c1ccc(Br)cc1)c1c[nH]c2ncc(Cl)cc12 (centres unmarked) [4Br-5Cl-7aza-OH]
Given back: 256 µg/mL

Asked: Let us now turn to O=[N+]([O-])c1cccc(C(O)c2c[nH]c3cnc(Cl)cc23)c1 (centres unmarked) [3NO2-5Cl-6aza-OH]
Given back: <256 µg/mL

Asked: Let us now turn to OC(c1ccc(Br)cc1)c1c[nH]c2c(Cl)nccc12 (centres unmarked) [4Br-7Cl-6aza-OH]
Given back: <256 µg/mL

Asked: Let us now turn to Oc1ccc(C(O)c2c[nH]c3cnccc23)cc1 (centres unmarked) [Compound 4OH-6aza-OH]
Given back: 256 µg/mL

Asked: Let us now turn to O=[N+]([O-])c1cccc(C(O)c2c[nH]c3c(Cl)nc(Br)cc23)c1 (centres unmarked) [3NO2-5Br-7Cl-6aza-OH]
Given back: <256 µg/mL

Asked: Let us now turn to Oc1ccc(C(c2c[nH]c3cnccc23)c2c[nH]c3cnccc23)cc1 [SP-6azaBIM 136]
Given back: 256 µg/mL

Asked: Let us now turn to Oc1ccc(C(c2c[nH]c3ncc(Cl)cc23)c2c[nH]c3ncc(Cl)cc23)cc1 [4OH-Bis 5Cl 7aza]
Given back: <256 µg/mL

Asked: Let us now turn to O=[N+]([O-])c1ccccc1C(O)c1c[nH]c2cnccc12 (centres unmarked) [Compound 2NO2-6aza-OH]
Given back: <256 µg/mL

Asked: Let us now turn to COc1ccc(C(O)c2c[nH]c3cnc(Br)cc23)cc1OC (centres unmarked) [3,4 Di methoxy 5Br-6aza-OH]
Given back: <256 µg/mL

Asked: Let us now turn to O=[N+]([O-])c1cccc(C(c2c[nH]c3cnccc23)c2c[nH]c3cnccc23)c1 [3NO2-Bis-6aza]
Given back: <256 µg/mL

Asked: Let us now turn to OC(c1ccc(Br)cc1)c1c[nH]c2cnccc12 (centres unmarked) [Compound 4Br-6aza-OH]
Given back: 16 µg/mL

Asked: Let us now turn to Nc1cccc(C(O)c2c[nH]c3cnccc23)c1 (centres unmarked) [Compound 3NH2-6aza-OH]
Given back: 32 µg/mL

Asked: Let us now turn to OC(c1ccc(Br)cc1)c1c[nH]c2cnc(Br)cc12 (centres unmarked) [4Br-5Br-6aza-OH]
Given back: <256 µg/mL

Asked: Let us now turn to O=[N+]([O-])c1cccc(C(O)c2c[nH]c3c(Cl)nccc23)c1 (centres unmarked) [3NO2-7Cl-6aza]
Given back: <256 µg/mL

Asked: Let us now turn to O=[N+]([O-])c1ccccc1C(O)c1c[nH]c2ncccc12 (centres unmarked) [Compound 2NO2-7aza-OH]
Given back: <256 µg/mL

Asked: Let us now turn to O=[N+]([O-])c1cccc(C(O)c2c[nH]c3ncc(F)cc23)c1 (centres unmarked) [3NO2-5Fl-7aza-OH]
Given back: <256 µg/mL

Asked: Let us now turn to O=[N+]([O-])c1ccc(C(O)c2c[nH]c3cnc(Cl)cc23)cc1 (centres unmarked) [4NO2-5Cl-6aza-OH]
Given back: 128 µg/mL
